# Tested on: MOR
# test-protocol: Guinea pig isolated ileum (GPI) functional assay
# Assay type: cell-based
# protocol-conditions: agonist activity, electrically stimulated tissue; read-out: GPI (MOR) IC50
Non-standard residues stand in square brackets, D forms with d. Residues, ends and D or L forms follow the SMILES beside them. *: point of attachment. NH(3,5-(CF3)2-benzyl) = FC(F)(F)c1cc(CN*)cc(C(F)(F)F)c1; NMeBn(3,5-(CF3)2) = CN(Cc1cc(C(F)(F)F)cc(C(F)(F)F)c1)*; Dmt = Cc1cc(O)cc(C)c1C[C@H](N)C(=O)O; NMeF = CN[C@@H](Cc1ccccc1)C(=O)O
measured-property: log10 of IC50 (log10 of the value in µM)
The figures below represent log10 of IC50, where IC50 is stated in µM.

Here is how some compounds turned out for log10 of IC50.
- compound: "Cc1cc(O)cc(C)c1C[C@H](N)C(=O)N[C@H](C)C(=O)NCC(=O)N(C)[C@@H](Cc1ccccc1)C(=O)N[C@@H](CO)C(=O)NCC(=O)N1CCC[C@H]1C(=O)N[C@@H](CC(C)C)C(=O)N[C@@H](Cc1c[nH]c2ccccc12)C(=O)NCc1cc(C(F)(F)F)cc(C(F)(F)F)c1 [AKG-CRA-137] (H-[Dmt][dA]G[NMeF]SGPLW-{NH(3,5-(CF3)2-benzyl)})"
  target-system: "MOR"
  log10 of IC50: -2.10
- compound: "CCCC[C@H](NC(=O)[C@H](Cc1ccccc1)N(C)C(=O)CNC(=O)[C@@H](C)NC(=O)[C@@H](N)Cc1ccc(O)cc1)C(=O)N1CCC[C@H]1C(=O)N[C@@H](CC(C)C)C(=O)N[C@@H](Cc1c[nH]c2ccccc12)C(=O)NCc1cc(C(F)(F)F)cc(C(F)(F)F)c1"
  target-system: "MOR"
  log10 of IC50: -0.14
- compound: "CC(C)C[C@H](NC(=O)[C@@H]1CCCN1C(=O)CCNC(=O)[C@H](Cc1ccccc1)N(C)C(=O)CNC(=O)[C@@H](C)NC(=O)[C@@H](N)Cc1ccc(O)cc1)C(=O)N[C@@H](Cc1c[nH]c2ccccc12)C(=O)NCc1cc(C(F)(F)F)cc(C(F)(F)F)c1"
  target-system: "MOR"
  log10 of IC50: -0.44
- compound: "CC(C)C[C@H](NC(=O)[C@@H]1CCCN1C(=O)c1ccc(NC(=O)[C@H](Cc2ccccc2)N(C)C(=O)CNC(=O)[C@@H](C)NC(=O)[C@@H](N)Cc2ccc(O)cc2)cc1)C(=O)N[C@@H](Cc1c[nH]c2ccccc12)C(=O)NCc1cc(C(F)(F)F)cc(C(F)(F)F)c1"
  target-system: "MOR"
  log10 of IC50: -1.39
- compound: "CC(C)C[C@H](NC(=O)[C@@H]1CCCN1C(=O)CCCNC(=O)[C@H](Cc1ccccc1)N(C)C(=O)CNC(=O)[C@@H](C)NC(=O)[C@@H](N)Cc1ccc(O)cc1)C(=O)N[C@@H](Cc1c[nH]c2ccccc12)C(=O)NCc1cc(C(F)(F)F)cc(C(F)(F)F)c1"
  target-system: "MOR"
  log10 of IC50: -0.37

Value lookup for log10 of IC50; key = Cc1cc(O)cc(C)c1C[C@H](N)C(=O)N[C@H](C)C(=O)NCC(=O)N[C@@H](Cc1ccc(Br)cc1)C(=O)N1CCC[C@H]1C(=O)N[C@@H](CC(C)C)C(=O)N[C@@H](Cc1c[nH]c2ccccc12)C(=O)NCc1cc(C(F)(F)F)cc(C(F)(F)F)c1
-0.33

And the next one, CC(C)C[C@H](NC(=O)[C@@H]1CCCN1C(=O)[C@H](Cc1ccc(O)cc1)NC(=O)CNC(=O)[C@H](Cc1ccccc1)NC(=O)[C@@H](C)NC(=O)[C@@H](N)Cc1ccc(O)cc1)C(=O)N[C@@H](Cc1c[nH]c2ccccc12)C(=O)N(C)Cc1cc(C(F)(F)F)cc(C(F)(F)F)c1 [QXP04] (H-Y[dA]FGYPLW-{NMeBn(3,5-(CF3)2)}) ?
-0.41

###

# target-system: DOR (Mus musculus)
# Construct: Male ICR mice under CO2 anesthesia were sacrificed by cervical dislocation and the vasa differentia removed; from tissue; host or cells: mouse vas deferens (ICR mice)
# Sequence (P32300 whole entry): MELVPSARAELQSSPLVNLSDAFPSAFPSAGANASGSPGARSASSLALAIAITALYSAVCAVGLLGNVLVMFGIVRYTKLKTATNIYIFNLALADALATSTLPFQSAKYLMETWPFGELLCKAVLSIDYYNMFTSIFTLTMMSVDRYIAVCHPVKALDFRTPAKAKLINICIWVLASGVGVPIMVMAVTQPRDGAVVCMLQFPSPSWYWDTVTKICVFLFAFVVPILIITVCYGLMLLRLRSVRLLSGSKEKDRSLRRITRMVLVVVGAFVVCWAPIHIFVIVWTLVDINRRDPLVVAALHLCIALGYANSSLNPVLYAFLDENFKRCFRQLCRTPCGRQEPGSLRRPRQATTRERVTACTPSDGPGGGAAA
# test-protocol: Mouse isolated vas deferens (MVD) functional assay
# Assay type: cell-based
# protocol-conditions: MVD (DOR) IC50 (nM), agonist activity, electrically stimulated tissue
Non-standard residues stand in square brackets, D forms with d. Residues, ends and D or L forms follow the SMILES beside them. *: point of attachment. NH(3,5-(CF3)2-benzyl) = FC(F)(F)c1cc(CN*)cc(C(F)(F)F)c1; Dmt = Cc1cc(O)cc(C)c1C[C@H](N)C(=O)O; NMeF = CN[C@@H](Cc1ccccc1)C(=O)O
Lab note: anything with IC50 below 10 nM is marked 1; values at 10 nM or higher are marked 0.

- compound: "Cc1cc(O)cc(C)c1C[C@H](N)C(=O)N[C@H](C)C(=O)NCC(=O)N(C)[C@@H](Cc1ccc(F)cc1)C(=O)N1CCC[C@H]1C(=O)N[C@@H](CC(C)C)C(=O)N[C@@H](Cc1c[nH]c2ccccc12)C(=O)NCc1cc(C(F)(F)F)cc(C(F)(F)F)c1 [AKG128]"
  category: 0
- compound: "CC(C)C[C@H](NC(=O)[C@@H]1CCCN1C(=O)[C@H](CO)NC(=O)[C@H](Cc1ccccc1)N(C)C(=O)CNC(=O)[C@@H](C)NC(=O)[C@@H](N)Cc1ccc(O)cc1)C(=O)N[C@@H](Cc1c[nH]c2ccccc12)C(=O)NCc1cc(C(F)(F)F)cc(C(F)(F)F)c1 [AKG126] (H-Y[dA]G[NMeF]SPLW-{NH(3,5-(CF3)2-benzyl)})"
  category: 0
- compound: "CC(C)C[C@H](NC(=O)[C@@H]1CCCN1C(=O)CNC(=O)[C@H](Cc1ccccc1)N(C)C(=O)CNC(=O)[C@@H](C)NC(=O)[C@@H](N)Cc1ccc(O)cc1)C(=O)N[C@@H](Cc1c[nH]c2ccccc12)C(=O)NCc1cc(C(F)(F)F)cc(C(F)(F)F)c1 [AKG113] (H-Y[dA]G[NMeF]GPLW-{NH(3,5-(CF3)2-benzyl)})"
  category: 0
- compound: "Cc1cc(O)cc(C)c1C[C@H](N)C(=O)N[C@H](C)C(=O)NCC(=O)N(C)[C@@H](Cc1ccccc1)C(=O)N1CCC[C@H]1C(=O)N[C@@H](CC(C)C)C(=O)N[C@@H](Cc1c[nH]c2ccccc12)C(=O)NCc1cc(C(F)(F)F)cc(C(F)(F)F)c1 [AKG115]"
  category: 0
- compound: "Cc1cc(O)cc(C)c1C[C@H](N)C(=O)N[C@H](C)C(=O)NCC(=O)N(C)[C@@H](Cc1ccccc1)C(=O)N[C@@H](CO)C(=O)N1CCC[C@H]1C(=O)N[C@@H](CC(C)C)C(=O)N[C@@H](Cc1c[nH]c2ccccc12)C(=O)NCc1cc(C(F)(F)F)cc(C(F)(F)F)c1 [AKG132] (H-[Dmt][dA]G[NMeF]SPLW-{NH(3,5-(CF3)2-benzyl)})"
  category: 1

hey, is IC50 for CC(C)C[C@H](NC(=O)[C@@H]1CCCN1C(=O)CNC(=O)[C@H](CO)NC(=O)[C@H](Cc1ccccc1)N(C)C(=O)CNC(=O)[C@@H](C)NC(=O)[C@@H](N)Cc1ccc(O)cc1)C(=O)N[C@@H](Cc1c[nH]c2ccccc12)C(=O)NCc1cc(C(F)(F)F)cc(C(F)(F)F)c1 [AKG-CRA-136] (H-Y[dA]G[NMeF]SGPLW-{NH(3,5-(CF3)2-benzyl)}) lower than 10 nM or not?
0

And the next one, Cc1cc(O)cc(C)c1C[C@H](N)C(=O)N[C@H](C)C(=O)NCC(=O)N[C@@H](Cc1ccccc1)C(=O)N1CCC[C@H]1C(=O)N[C@@H](CC(C)C)C(=O)N[C@@H](Cc1c[nH]c2ccccc12)C(=O)NCc1cc(C(F)(F)F)cc(C(F)(F)F)c1 [AKG116] ?
1

###

# target-system: NK1R (Cavia porcellus)
# Construct: The longitudinal muscle with myenteric plexus (LMMP) was carefully separated from the circular muscle; from tissue; host or cells: guinea pig ileum longitudinal muscle with myenteric plexus
# Sequence (P30547 whole entry): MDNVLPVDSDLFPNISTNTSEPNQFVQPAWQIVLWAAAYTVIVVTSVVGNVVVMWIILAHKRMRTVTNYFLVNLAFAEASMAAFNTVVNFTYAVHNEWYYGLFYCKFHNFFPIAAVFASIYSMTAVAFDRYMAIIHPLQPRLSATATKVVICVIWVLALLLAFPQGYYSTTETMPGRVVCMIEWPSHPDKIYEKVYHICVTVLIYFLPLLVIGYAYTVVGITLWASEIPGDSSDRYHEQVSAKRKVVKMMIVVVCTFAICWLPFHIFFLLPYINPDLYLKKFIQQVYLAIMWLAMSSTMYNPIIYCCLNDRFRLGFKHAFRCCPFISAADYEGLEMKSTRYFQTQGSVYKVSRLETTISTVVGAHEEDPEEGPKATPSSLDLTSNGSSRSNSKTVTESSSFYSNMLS
# test-protocol: GPI/LMMP functional assay at NK1R (agonist and antagonist testing)
# Type: cell-based, guinea pig
# protocol-conditions: GPI/LMMP (NK1R) Ke (nM) ± S.E.M., antagonist activity
Non-standard residues stand in square brackets, D forms with d. Residues, ends and D or L forms follow the SMILES beside them. *: point of attachment. NH(3,5-(CF3)2-benzyl) = FC(F)(F)c1cc(CN*)cc(C(F)(F)F)c1; NMePhe(4-F) = CN[C@@H](Cc1ccc(F)cc1)C(=O)O; Dmt = Cc1cc(O)cc(C)c1C[C@H](N)C(=O)O; NMeF = CN[C@@H](Cc1ccccc1)C(=O)O
measured-property: Kb (nM)
Number only, in nM; omit the unit.

- compound: "Cc1cc(O)cc(C)c1C[C@H](N)C(=O)N[C@H](C)C(=O)NCC(=O)N(C)[C@@H](Cc1ccccc1)C(=O)N[C@@H](CO)C(=O)N1CCC[C@H]1C(=O)N[C@@H](CC(C)C)C(=O)N[C@@H](Cc1c[nH]c2ccccc12)C(=O)NCc1cc(C(F)(F)F)cc(C(F)(F)F)c1 [AKG132] (H-[Dmt][dA]G[NMeF]SPLW-{NH(3,5-(CF3)2-benzyl)})"
  Kb, nM: 19.8

Value lookup for Kb; key = CC(C)C[C@H](NC(=O)[C@@H]1CCCN1C(=O)CNC(=O)[C@H](Cc1ccc(F)cc1)N(C)C(=O)CNC(=O)[C@@H](C)NC(=O)[C@@H](N)Cc1ccc(O)cc1)C(=O)N[C@@H](Cc1c[nH]c2ccccc12)C(=O)NCc1cc(C(F)(F)F)cc(C(F)(F)F)c1 [AKG131] (H-Y[dA]G[NMePhe(4-F)]GPLW-{NH(3,5-(CF3)2-benzyl)})
35.8
